Hey, just so you know, these numbers are from PubChem BioAssay.

# Experiment summary: A549 cell viability effects, profiling panel, calcein-AM fluorescence, 48 h, basal (AID 1162); note: test concentration not given here
# Particulars: higher = more signal
Observable: z-score

Known z-score results, listed for orientation:
Molecule	Reported value
COc1ccc(C(O)C2C=CC3C(=O)N(C)C(=O)C3N2Nc2ccc([N+](=O)[O-])cc2[N+](=O)[O-])cc1OCc1ccccc1 (stereo not given)	-0.65
CN(C)CCCCNC(=O)[C@H]1C[C@H]2C(=O)NCC(=O)N2[C@H]1c1cccc(OCCO)c1	1.11
CO[C@H]1O[C@H](CO)[C@@H](OC(=O)Nc2ccc(C(F)(F)F)cc2)[C@H](OC(=O)Nc2ccccc2-c2ccccc2)[C@@H]1OC(=O)Nc1ccccc1-c1ccccc1	-1.34
CCCCN1CC=CC23O[C@@H]4/C=C\CCC(C)OC(=O)C4[C@H]2C(=O)N(C(C)CO)[C@@H]3C1=O (stereo not given in full)	-0.425

Switching to the query record.
For the molecule shown here, "COc1ccc(CCNC(=O)[C@@]2(Sc3ccc(C)cc3)CC(=O)N(Cc3cc(C(F)(F)F)cc(C(F)(F)F)c3)[C@@H]2c2ccc(CO)cc2)cc1" , give the reported z-score. -0.147
